Reference source: patent US8487102B2

- Subject Of Test: Recombinant human NK3 (hNK3) receptor (Homo sapiens, UniProt P29371)
- Construct: membrane preparations of the recombinant receptor
- Sequence (P29371 whole entry): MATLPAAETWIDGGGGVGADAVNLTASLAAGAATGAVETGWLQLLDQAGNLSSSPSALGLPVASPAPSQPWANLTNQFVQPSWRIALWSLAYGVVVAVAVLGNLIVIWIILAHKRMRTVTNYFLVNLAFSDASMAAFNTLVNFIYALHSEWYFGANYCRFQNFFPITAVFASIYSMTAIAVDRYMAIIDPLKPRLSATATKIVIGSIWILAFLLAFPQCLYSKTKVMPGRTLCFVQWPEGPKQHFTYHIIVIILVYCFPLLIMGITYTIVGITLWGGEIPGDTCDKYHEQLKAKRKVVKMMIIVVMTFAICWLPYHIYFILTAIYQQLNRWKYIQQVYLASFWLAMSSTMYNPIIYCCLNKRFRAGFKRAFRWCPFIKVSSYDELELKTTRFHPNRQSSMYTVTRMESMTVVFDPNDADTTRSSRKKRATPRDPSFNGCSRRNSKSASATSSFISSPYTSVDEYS
- Assay Remarks: NK3 receptor binding assay, [3H]SR142801 displacement
- Experimental Setup: hNK3 receptor membranes, [3H]SR142801 0.3 nM
- Method: Recombinant human NK3 (hNK3) receptor affinity was determined in a 96 well plate assay, using [^3H]SR142801 (final concentration 0.3 nM) to radiolabel the hNK3 receptor in the presence of 10 concentrations of competing compound or buffer. Non specific binding was determined using 10 μM SB222200. Assay buffer consisted of Tris-HCl (50 mM, pH 7.4), BSA (0.1%), MnCl2 (4 mM) and phosphoramidon (1 μM). […]
Test Readout: Ki (nM)
Provide only the numeric value, understood in nM.

## Input Identify the measured Ki of `CCn1ncc2c(-c3ccc(F)cc3C)c(N(C)C(=O)C(C)(C)c3cc(Cl)cc(Cl)c3)cnc21` for Recombinant human NK3 (hNK3) receptor (Homo sapiens, UniProt P29371).
## Output 35.1

## Input Lab note: need Ki for `CCn1ncc2c(-c3ccc(F)cc3C)c(N(C)C(=O)C(C)(C)c3cccc(Cl)c3)cnc21` on Recombinant human NK3 (hNK3) receptor (Homo sapiens, UniProt P29371), anyone have it?
## Output 308

## Input Report Ki for `Cc1cc(F)ccc1-c1c(N(C)C(=O)C(C)(C)c2cc(C(F)(F)F)cc(C(F)(F)F)c2)cnc2c1cnn2CS(C)(=O)=O` tested on Recombinant human NK3 (hNK3) receptor (Homo sapiens, UniProt P29371).
## Output 8

## Input Hi! What's the reported Ki for `CCn1ncc2c(-c3ccc(F)cc3OC)c(N(C)C(=O)C(C)(C)c3cc(C(F)(F)F)cc(C(F)(F)F)c3)cnc21` on Recombinant human NK3 (hNK3) receptor (Homo sapiens, UniProt P29371)?
## Output 41.4

## Input Could you share what Ki was measured for `CCn1ncc2c(-c3ccc(C#N)cc3)c(N(C)C(=O)C(C)(C)c3cc(C(F)(F)F)cc(C(F)(F)F)c3)cnc21` , tested on Recombinant human NK3 (hNK3) receptor (Homo sapiens, UniProt P29371)?
## Output 979

## Input Record lookup: for Recombinant human NK3 (hNK3) receptor (Homo sapiens, UniProt P29371), what Ki belongs to `CCn1ncc2c(-c3cc(F)ccc3C)c(N(C)C(=O)C(C)(C)c3cc(C(F)(F)F)cc(C(F)(F)F)c3)cnc21` ?
## Output 160

## Input // fetch Recombinant human NK3 (hNK3) receptor (Homo sapiens, UniProt P29371) Ki for `CCn1ncc2c(-c3ccc(F)cc3C)c(NC(=O)C(C)(C)c3cc(C(F)(F)F)cc(C(F)(F)F)c3)cnc21`
## Output 200

====

For each entry below, report its Ki value.
- Subject Of Test: human NK1 receptor (Homo sapiens)
- Assay Remarks: NK1 receptor binding assay, [3H]substance P displacement
- Experimental Setup: human NK1 receptors in CHO cells, [3H]substance P 0.6 nM
Provide a numeric answer, followed by its unit.

## Input Please provide the recorded Ki for `CCn1ncc2c(-c3ccsc3Cl)c(N(C)C(=O)C(C)(C)c3cc(C(F)(F)F)cc(C(F)(F)F)c3)cnc21` , tested on human NK1 receptor (Homo sapiens).
## Output 36 nM

## Input So what Ki did `Cc1cc(F)ccc1-c1c(N(C)C(=O)C(C)(C)c2cc(C(F)(F)F)cc(C(F)(F)F)c2)cnc2[nH]ncc12` get with human NK1 receptor (Homo sapiens)?
## Output 1.6 nM

## Input Which measured Ki belongs to `CCn1ncc2c(-c3ccc(Cl)c(Cl)c3)c(N(C)C(=O)C(C)(C)c3cc(C(F)(F)F)cc(C(F)(F)F)c3)cnc21` , tested on human NK1 receptor (Homo sapiens)?
## Output 0.4 nM

## Input Entry `COCC(=O)n1ncc2c(-c3ccc(F)cc3C)c(N(C)C(=O)C(C)(C)c3cc(C(F)(F)F)cc(C(F)(F)F)c3)cnc21` , system human NK1 receptor (Homo sapiens): what Ki was measured?
## Output 1.9 nM

## Input Field: Ki (human NK1 receptor (Homo sapiens)). Entry: `CCn1ncc2c(-c3ccccc3C)c(N(C)C(=O)C(C)(C)c3cc(C(F)(F)F)cc(C(F)(F)F)c3)cnc21`
## Output 1.2 nM

## Input Under human NK1 receptor (Homo sapiens): Ki value of `Cc1cc(F)ccc1-c1c(N(C)C(=O)C(C)(C)c2cc(C(F)(F)F)cc(C(F)(F)F)c2)cnc2c1cnn2C` ?
## Output 0.8 nM

## Input Given the entry `Cc1cc(F)ccc1-c1c(N(C)C(=O)C(C)(C)c2cc(C(F)(F)F)cc(C(F)(F)F)c2)cnc2c1cnn2CC(F)F` , what Ki was observed with human NK1 receptor (Homo sapiens)?
## Output 0.9 nM

====

- Subject Of Test: human NK1 receptor (Homo sapiens, UniProt P25103)
- Sequence (P25103 whole entry): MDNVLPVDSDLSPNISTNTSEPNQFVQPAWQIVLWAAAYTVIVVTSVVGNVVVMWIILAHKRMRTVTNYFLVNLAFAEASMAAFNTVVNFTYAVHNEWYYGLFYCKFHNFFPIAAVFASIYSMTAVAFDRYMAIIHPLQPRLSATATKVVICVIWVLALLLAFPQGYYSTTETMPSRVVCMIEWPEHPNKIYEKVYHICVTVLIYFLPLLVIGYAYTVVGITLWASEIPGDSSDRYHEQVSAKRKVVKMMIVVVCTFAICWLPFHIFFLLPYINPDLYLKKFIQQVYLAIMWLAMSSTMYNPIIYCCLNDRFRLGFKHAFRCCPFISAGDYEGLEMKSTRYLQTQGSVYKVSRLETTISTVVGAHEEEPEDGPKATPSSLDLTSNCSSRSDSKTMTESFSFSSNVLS
- Assay Remarks: NK1 receptor binding assay, [3H]substance P displacement
- Experimental Setup: human NK1 receptors in CHO cells, [3H]substance P 0.6 nM
Would you kindly list pKi for each of these molecules?
pKi here is simply -log10 of the concentration when that concentration is written in mol/L.

## Input What value of pKi has been recorded for this entry: `CCn1ncc2c(-c3ccccc3)c(N(C)C(=O)C(C)(C)c3cc(C(F)(F)F)cc(C(F)(F)F)c3)cnc21`
## Output 8.60

## Input For the molecule `CCn1ncc2c(-c3ccc(F)cc3OC)c(N(C)C(=O)C(C)(C)c3cc(C(F)(F)F)cc(C(F)(F)F)c3)cnc21` , what pKi is on record?
## Output 9.15

## Input Which pKi value is on record for `CCn1ncc2c(-c3ccc(F)cc3C)c(NC(=O)C(C)(C)c3cc(C(F)(F)F)cc(C(F)(F)F)c3)cnc21` ?
## Output 8.22

## Input Consider the molecule `Cc1cc(F)ccc1-c1c(N(C)C(=O)C(C)(C)c2cc(C(F)(F)F)cc(C(F)(F)F)c2)cnc2c1cnn2CS(C)(=O)=O` and give its measured pKi.
## Output 8.96

## Input Given the molecule `CCn1ncc2c(-c3ccc(F)cc3C)c(N(C)C(=O)C(C)(C)c3cccc(C(F)(F)F)c3)cnc21` , what is its reported pKi?
## Output 7.91

## Input Param item = `CCn1ncc2c(-c3ccc(F)cc3Cl)c(N(C)C(=O)C(C)(C)c3cc(C(F)(F)F)cc(C(F)(F)F)c3)cnc21` ; retrieve measured pKi.
## Output 9.52

## Input Record request: pKi value, item `CCn1ncc2c(-c3ccc(F)cc3C)c(N(C)C(=O)C(C)(C)c3cc(C(F)(F)F)cc(C(F)(F)F)c3)cnc21`
## Output 8.96

====

Please go through the items and note down their log10 Ki.
- Subject Of Test: human NK1 receptor (Homo sapiens)
- Assay Remarks: NK1 receptor binding assay, [3H]substance P displacement
- Experimental Setup: human NK1 receptors in CHO cells, [3H]substance P 0.6 nM
Values are log10 of Ki in nM.

## Input Using the record for `CCn1ncc2c(-c3ccccc3OC)c(N(C)C(=O)C(C)(C)c3cc(C(F)(F)F)cc(C(F)(F)F)c3)cnc21` , report its log10 Ki.
## Output -0.15

## Input Please give the measured log10 Ki for this molecule: `CCn1ncc2c(-c3ccccc3Cl)c(N(C)C(=O)C(C)(C)c3cc(C(F)(F)F)cc(C(F)(F)F)c3)cnc21`
## Output -0.22

## Input Data request, read-out log10 Ki, for `CCn1ncc2c(-c3ccc(F)cc3C)c(N(C)C(=O)C(C)(C)c3cccc(Cl)c3)cnc21`
## Output 1.54

## Input Look at this molecule and give its reported log10 Ki. `CCn1ncc2c(-c3ccc(C#N)cc3)c(N(C)C(=O)C(C)(C)c3cc(C(F)(F)F)cc(C(F)(F)F)c3)cnc21`
## Output 0.69

## Input Entry `CCn1ncc2c(-c3ccc(F)cc3C)c(N(C)C(=O)C(C)(C)c3cc(F)cc(C(F)(F)F)c3)cnc21` has what log10 Ki?
## Output 0.62

## Input Which value of log10 Ki has been reported for `Cc1cc(F)ccc1-c1c(N(C)C(=O)C(C)(C)c2cc(C(F)(F)F)cc(C(F)(F)F)c2)cnc2c1cnn2S(C)(=O)=O` in the records?
## Output -0.22

## Input Given the molecule `CCn1ncc2c(-c3ccccc3CO)c(N(C)C(=O)C(C)(C)c3cc(C(F)(F)F)cc(C(F)(F)F)c3)cnc21` , what is its reported log10 Ki?
## Output 0.20

## Input For the molecule shown here, `Cc1cc(F)ccc1-c1c(N(C)C(=O)C(C)(C)c2cc(C(F)(F)F)cc(C(F)(F)F)c2)cnc2c1cnn2S(=O)(=O)N(C)C` , give the reported log10 Ki.
## Output 0.88

## Input log10 Ki lookup needed for `CCn1ncc2c(-c3ccc(F)cc3C)c(N(C)C(=O)C(C)(C)c3cc(Cl)cc(Cl)c3)cnc21` , thanks.
## Output 0.41

## Input Item `CCn1ncc2c(-c3cc(CO)ccc3Cl)c(N(C)C(=O)C(C)(C)c3cc(C(F)(F)F)cc(C(F)(F)F)c3)cnc21` has what recorded log10 Ki?
## Output 0.40

## Input Give the measured log10 Ki of `CC(=O)n1ncc2c(-c3ccc(F)cc3C)c(N(C)C(=O)C(C)(C)c3cc(C(F)(F)F)cc(C(F)(F)F)c3)cnc21` .
## Output 0.08

## Input Quick one: log10 Ki of `CCn1ncc2c(-c3ccc(F)cc3F)c(N(C)C(=O)C(C)(C)c3cc(C(F)(F)F)cc(C(F)(F)F)c3)cnc21` ?
## Output 0.23

## Input // log10 Ki lookup, key: `CCn1ncc2c(-c3ccc(OC)cc3C)c(N(C)C(=O)C(C)(C)c3cc(C(F)(F)F)cc(C(F)(F)F)c3)cnc21`
## Output 0.93

## Input May I ask what log10 Ki has been recorded for `CCn1ncc2c(-c3cccc(F)c3F)c(N(C)C(=O)C(C)(C)c3cc(C(F)(F)F)cc(C(F)(F)F)c3)cnc21` ?
## Output 1.01
